- Target: pooled human IgG (human IgG1,2,3 and 4)
Readout name: Enzyme Activity Endpoint Assay: Fc (ng/µL)

[
  {
    "Protein": "PRT-97 (protein) MANQEIRYSEVTPYHVTSVWTKGVTPPAKFTQGEDVFHAPYVANQGWYDITKTFNGKDDLLCGAATAGNMLHWWFDQNKEKIEAYLKKHPEKQKIMFGDQELLDVRKVINTKGDQTNSELFNYFRDKAFPGLSARRIGVMPDLVLDMFINGYYLNVYKTQTTDVNRTYQEKDRRGGIFDAVFTRGDQSKLLTSRHDFKEKNLKEISDLIKKELTEGKALGLSHTYANVRINHVINLWGADFDSNGNLKAIYVTDSDSNASIGMKKYFVGVNSAGKVAISAKEIKEDNIGAQVLGLFTLSTGQDSWNQTN",
    "Unit abbrev": "ng/µL",
    "Observed result": 185
  }
]
